- tested.target: T1, IL-36R naturally expressed on OVCAR8 cells and on normal human epidermal keratinocytes (NHK cells) (human, UniProt Q9HB29 20-575)
- T1 sequence (looked up): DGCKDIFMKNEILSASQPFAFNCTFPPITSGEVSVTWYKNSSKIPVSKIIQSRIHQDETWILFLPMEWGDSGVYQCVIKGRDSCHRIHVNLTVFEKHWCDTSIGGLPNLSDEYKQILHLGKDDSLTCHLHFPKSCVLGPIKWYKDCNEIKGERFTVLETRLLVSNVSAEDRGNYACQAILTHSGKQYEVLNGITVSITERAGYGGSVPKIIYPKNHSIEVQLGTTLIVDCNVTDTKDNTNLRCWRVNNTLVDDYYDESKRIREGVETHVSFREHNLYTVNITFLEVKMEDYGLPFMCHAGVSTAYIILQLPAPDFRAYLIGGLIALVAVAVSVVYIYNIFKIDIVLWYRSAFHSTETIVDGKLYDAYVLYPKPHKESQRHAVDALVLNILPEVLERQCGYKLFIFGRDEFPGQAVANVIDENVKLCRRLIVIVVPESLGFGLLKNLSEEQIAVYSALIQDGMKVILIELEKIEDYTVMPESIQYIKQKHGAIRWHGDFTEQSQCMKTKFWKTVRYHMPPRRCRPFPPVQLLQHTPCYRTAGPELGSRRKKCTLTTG
- measurement.protocol: cell-based or functional assay
reported.property: Maximum inhibition rate %; hIL36γ; IL-8 production (%)
Report the value in % with no unit label.

[
  {
    "binder": "hz84C4-2.1 (antibody, human IgG4 S228P, kappa, V domains shown, Humanized, human IgG4 / kappa) VH: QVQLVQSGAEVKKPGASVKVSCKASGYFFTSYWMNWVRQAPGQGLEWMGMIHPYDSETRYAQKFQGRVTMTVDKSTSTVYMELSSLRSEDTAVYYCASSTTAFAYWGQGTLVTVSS VL: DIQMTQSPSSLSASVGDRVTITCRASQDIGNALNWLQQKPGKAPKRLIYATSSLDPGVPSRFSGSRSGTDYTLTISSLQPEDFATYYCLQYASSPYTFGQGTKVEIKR",
    "assay.result": 97.5
  }
]

Value lookup for Maximum inhibition rate %; hIL36γ; IL-8 production; key = hz84C4-1.5 (antibody, human IgG4 S228P, kappa, V domains shown, Humanized, human IgG4 / kappa) VH: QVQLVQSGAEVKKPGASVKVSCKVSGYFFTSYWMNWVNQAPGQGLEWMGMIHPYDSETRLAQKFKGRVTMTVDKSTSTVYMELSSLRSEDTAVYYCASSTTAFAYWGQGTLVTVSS VL: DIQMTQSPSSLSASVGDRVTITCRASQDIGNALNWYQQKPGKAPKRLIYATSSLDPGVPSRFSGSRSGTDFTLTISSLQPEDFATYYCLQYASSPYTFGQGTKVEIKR
109

// returns reported Maximum inhibition rate %; hIL36γ; IL-8 production for input hz84C4-1.4 (antibody, human IgG4 S228P, kappa, V domains shown, Humanized, human IgG4 / kappa) VH: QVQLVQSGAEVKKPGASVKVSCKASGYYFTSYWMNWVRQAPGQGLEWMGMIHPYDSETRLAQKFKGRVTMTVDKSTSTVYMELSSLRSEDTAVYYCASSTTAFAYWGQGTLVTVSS VL: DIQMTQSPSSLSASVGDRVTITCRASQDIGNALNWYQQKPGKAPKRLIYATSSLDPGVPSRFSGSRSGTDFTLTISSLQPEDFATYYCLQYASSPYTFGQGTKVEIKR
109

For the binder shown here, hz84C4-2.2 (antibody, human IgG4 S228P, kappa, V domains shown, Humanized, human IgG4 / kappa) VH: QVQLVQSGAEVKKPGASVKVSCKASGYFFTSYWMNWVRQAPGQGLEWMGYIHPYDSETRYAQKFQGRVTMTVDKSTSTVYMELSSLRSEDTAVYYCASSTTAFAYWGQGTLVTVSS VL: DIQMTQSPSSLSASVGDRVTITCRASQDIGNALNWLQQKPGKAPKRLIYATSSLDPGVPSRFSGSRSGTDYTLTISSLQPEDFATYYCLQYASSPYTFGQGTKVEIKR , give the reported Maximum inhibition rate %; hIL36γ; IL-8 production.
15
